// reported cytotoxicity at 10 µM per item
- test-details: Toxicity liver stage against HepG2, at 10uM
- Format: cell-based
- Design: test concentration 10 uM, cell line HepG2-A16-CD81EGFP
- experimental-setup: human, HepG2-A16-CD81EGFP cells; read-out: INHIBITION
measured-parameter: cytotoxicity at 10 µM (%)

compound	measured-parameter	observed-measurement
CC(C)C1CCN(C(=O)NCC(=O)N(C)CC(F)(F)F)CC1	cytotoxicity at 10 µM	20.7
O=C(NCCN1CCOCC1)N(Cc1ccoc1)C1CCCCC1	cytotoxicity at 10 µM	-0.315
Cc1cc(Cn2cc(C(C)Cc3ccc4c(c3)OCO4)nn2)n[nH]1 (centres undefined)	cytotoxicity at 10 µM	5.92
c1ccc(CN2CCn3c(Cn4cncn4)cnc3C2)nc1	cytotoxicity at 10 µM	-70.7

---

- test-details: Toxicity liver stage against HepG2, at 10uM
- Assay type: cell-based
- Design: test concentration 10 uM, cell line HepG2-A16-CD81EGFP
- experimental-setup: human, HepG2-A16-CD81EGFP cells; read-out: INHIBITION
// reported cytotoxicity at 10 µM per item
measured-parameter: cytotoxicity at 10 µM (%)

compound	unit-name	observed-measurement
CCCNC(=O)CN1CCC(NCc2c(C)nn(C)c2OC)CC1	%	-5.32
CC(C)(C)c1cc(=O)[nH]c(C2(N)CCCC2)n1	%	8.79
COc1ccccc1C1(CNc2ncc(S(N)(=O)=O)s2)CC1	%	-3.6
CCOCC1CN(C(=O)N2CCCC2)Cc2cnn(C)c21 (stereo not drawn)	%	-0.96
CN(C)C(=O)CN1C(=O)CO[C@@H]2CN(c3ccccn3)C[C@H]21	%	12.3
Cc1ccc(NC2CCN(C(=O)c3cc(C)no3)CC2)nn1	%	-11.6
COc1ccc(NC(=O)C2OC(c3cccs3)=NN2C(C)=O)cc1OC (stereo not drawn)	%	-2.19
Cc1nccn1CCCN1CCC2(CCC(=O)N(CC3CC3)C2)CC1	%	3.12
CC(O)(CNC(=O)c1c(F)cccc1Cl)C1CC1 (stereo not drawn)	%	-8.87
Cc1oc(-c2nc(C#N)c(NC(C)C)o2)cc1S(=O)(=O)N1CCCCC1	%	4.28
COc1cccc(CN(C)C(=O)CN2CCN(CCO)CC2)c1	%	12.3
N#Cc1cc(Cl)ccc1N1CCN(C(=O)C2CCC2)CC1	%	10.1
c1ccc(OCC2CC3(CCN(CC4CCOCC4)CC3)CO2)nc1 (stereo not drawn)	%	-1.37
Cc1cc(-c2cnc(NCc3cccnc3)nc2C(C)(C)C)on1	%	49.6
Cc1ccccc1CN(C)C(=O)Cn1nc(-c2ccc(F)cc2)oc1=O	%	-19.3
O=C(NCC(O)COc1ccccc1)C1(c2ccc(F)cc2)CC1 (stereo not drawn)	%	1.3
CC(C)=CCN1CC2(CCN(Cc3ncc[nH]3)CC2)CC1=O	%	-10.8
CCc1noc(CCC(=O)N2CCC(c3ccn[nH]3)C2)n1 (stereo not drawn)	%	6.03
Cc1ccc2c(c1)CCC2NC(=O)N1CCC(C(N)=O)CC1 (stereo not drawn)	%	-4.83
COCCNC(=O)c1sc(Nc2ccc(Cl)cn2)nc1C	%	32.4
CC(C)c1nsc(N2CCCOCC2)n1	%	-7.86
COC1CCC(N(C)c2ccnc(N(C)C)n2)CC1 (stereo not drawn)	%	-13.6
CCN1CC2(CCN(C(=O)C3CSC(C)(C)C(=O)N3)CC2)CC1=O (stereo not drawn)	%	1.72
NC(=O)NC(CC(=O)NCCc1cccc(F)c1)c1cccs1 (stereo not drawn)	%	1.55
CN(Cc1ccccn1)c1nccc(N2CCN[C@H]3CS(=O)(=O)C[C@H]32)n1	%	10.5
CC(NCC1CCS(=O)(=O)CC1)c1cccc(OC(F)F)c1 (stereo not drawn)	%	-5.16
Cc1cnn(CC2CCCN2Cc2ncc(-c3ccc(F)cc3)o2)c1 (stereo not drawn)	%	-17.6
CCCn1ccc2ccc(NC(=O)N(C)CCOC)cc21	%	1.31

---

- test-details: Toxicity liver stage against HepG2, at 10uM
- Format: cell-based
- Design: test concentration 10 uM, cell line HepG2-A16-CD81EGFP
- experimental-setup: human, HepG2-A16-CD81EGFP cells; read-out: INHIBITION
// reported cytotoxicity at 10 µM per item

compound	unit-name	cytotoxicity at 10 µM
CCS(=O)(=O)N1CCCn2cnc(COc3cccnc3)c2C1	%	-0.00278
CCc1ccc(O)c(C(=O)NC2CCN(S(=O)(=O)CC)CC2)c1	%	7.37
OC(COCc1cccs1)Cn1cc(-n2cccc2)cn1 (configuration not stated)	%	0.12
COCc1cc(CNCc2c(C)n(CC(C)C)c3ccccc23)n[nH]1	%	12
CNS(=O)(=O)c1cccc(C(C)NCc2cccc(O)c2)c1 (configuration not stated)	%	1.14
CN(Cc1cccnc1)C[C@H]1CC[C@@H](Cc2ccc3c(cnn3C)c2)O1	%	5.15
Cc1nc[nH]c1CN1CCCn2nc(CN3CCC(F)(F)CC3)cc2C1	%	0.13
CC(C)=CCN1C[C@@H]2CC[C@H]1CN(CCC(=O)NCc1ccco1)C2	%	-3.08
COCc1ccccc1CNC(=O)CN1CCCC1c1noc(C)n1 (configuration not stated)	%	1.13
O=C(CSc1ccc(F)cc1F)NS(=O)(=O)c1ccc2c(c1)OCCO2	%	-10.7
CC(=O)OC1CN(c2nc3c(C(F)(F)F)cccc3s2)C1	%	-5.17
O=C(Nc1cccnc1-n1cc(Cl)cn1)C1CCCC1	%	-43.3
O=C(NCc1ccco1)[C@H]1CC[C@@H]2[C@@H](CCN2c2ncccn2)O1	%	-69.6
Cc1nn(C)c(C)c1C1CCCN1CCOc1cccc(C#N)c1 (configuration not stated)	%	-8.41
CS(=O)(=O)CCN1CCN(c2ccc(Cl)cn2)CC1	%	4.13
Cc1cnn(C2CCCN(C(=O)Cc3ccc(C)s3)C2)c1 (configuration not stated)	%	-13.4
COc1cccc(CN(C)C(=O)c2ccc(NC(C)=O)s2)c1OC	%	0.23

---

- test-details: Toxicity liver stage against HepG2, at 10uM
- Type: cell-based
- Parameters: test concentration 10 uM, cell line HepG2-A16-CD81EGFP
- experimental-setup: human, HepG2-A16-CD81EGFP cells; read-out: INHIBITION
// reported cytotoxicity at 10 µM per item

molecule	unit-name	cytotoxicity at 10 µM
O=C(N1CCCC1)N1CCCC2(CCN(c3ccsc3)C2=O)C1 (centres undefined)	%	-74.1
O=C(O)C1(O)CCN(c2ccnc3c(C(F)(F)F)cccc23)CC1	%	5.56
CN(C)Cc1nnc(C2CCCN(Cc3ccc(Cl)s3)C2)n1C (centres undefined)	%	-11.1
CCNC(=O)Nc1c(C)cnn1Cc1cc(F)ccc1F	%	5.28

---

// reported cytotoxicity at 10 µM per item
- test-details: Toxicity liver stage against HepG2, at 10uM
- Format: cell-based
- Set-up: test concentration 10 uM, cell line HepG2-A16-CD81EGFP
- experimental-setup: human, HepG2-A16-CD81EGFP cells; read-out: INHIBITION

molecule	cytotoxicity at 10 µM, %
COC(=O)c1ccc(CCn2cnc(C#N)n2)cc1	-3.15
Cn1cc(NC(=O)Cc2ccccc2Br)cc1C(N)=O	-1
CN1CCN(Cc2cn3c(n2)CN(Cc2ccncc2)CC3)CC1	-94.8
CC(C)CN1C[C@@H]2OCC(=O)N(Cc3nccn3C)[C@@H]2C1	0.174
Cc1cccc2[nH]c(C3CCCN(Cc4ccccc4C(=O)O)C3)nc12 (centres undefined)	7.28
CC(C)c1nccn1C1CCCN(C(=O)c2cc(C3CC3)on2)C1 (centres undefined)	-7.37
O=C(NC1CC1)[C@@H]1CCO[C@@H]2CCN(Cc3ccco3)C[C@H]21	-86.6
COCCc1noc(CN2CCCC2c2noc(C3CC3)n2)n1 (centres undefined)	1.33
COc1ccc(S(=O)(=O)Nc2cccnc2-n2cncn2)c(C)c1	3.64
COCc1noc(-c2cc(Cl)c3c(c2)OCCCO3)n1	0.174
CN(C)C(=O)CN1C[C@H]2CN(Cc3cccc(F)c3)C(=O)[C@H]2C1	-79.5
CN1CCCC1CCNC(=O)c1ccccc1-n1cc(CN)cn1 (centres undefined)	3.44
COCC(=O)N1CCC(O)(CN2CCN(c3ccccc3)CC2)C1 (centres undefined)	-2.38
O=C(N[C@@H]1CCN(Cc2cccc3nonc23)C[C@H]1O)c1cccnc1	-2.3
CCN(Cc1ccc2c(c1)OCCO2)C(=O)NCc1cc[nH]n1	1.54
CN(C)S(=O)(=O)Nc1ccc(-n2nccc2C(F)(F)F)cc1	5.65
COCc1nc(C(=O)N2CCCC2c2cccs2)cs1 (centres undefined)	-5.16
COCc1nc(C(=O)NS(=O)(=O)c2ccc(OC)c(C)c2)cs1	1.06
Cn1cc(CNCCNC(=O)Cc2ccccc2)c(-c2cccnc2)n1	13.1
NC(=O)N1CCCC1COC(=O)c1cc(F)ccc1F (centres undefined)	-0.743
CN(C)C(=O)C(C)(C)c1ccc2c(c1)OCCO2	-1.52
O=C(NCCCn1cnnc1)C1CCCN(C2CCCC2)C1 (centres undefined)	-0.121
O=C(Cc1ccccc1)N1CCC2(CC1)CN(c1ncccn1)CCO2	-72.3
COCCC(=O)N1CCC(c2ccc3c(NC(C)C)n[nH]c3n2)C1 (centres undefined)	0.691
Cc1cc(C)n(CC(=O)N(C)Cc2csc(-c3cccs3)n2)c(=O)n1	32.2
CN(C)C(=O)C1CCCN1CCCNC(=O)c1ccccc1Cl (centres undefined)	-8.27
CC1CCCN(C(=O)CNC(=O)c2ccoc2)C1 (centres undefined)	-0.775
Cn1cnc(S(=O)(=O)Nc2cc(C(N)=O)ccc2Cl)c1	3.86
CC(C)c1nc(C2CCCN2C(=O)c2nccnc2N)no1 (centres undefined)	-1.96
